assay: Circulating 4-AP levels by HPLC (Example 11); format: in vivo, mice; conditions: mouse, blood, ip, 1 /g/kg, mice treated with PTX + 4-AP; 7 day 1st draw; 1 hour after i.p. injection; individual mice; read-out: Circulating 4-AP levels, Amount
PARAMETER_MEASURED: concentration at 1 h (µM)
Report the value in µM with no unit label.

Entry under review: Nc1ccncc1 . Reported concentration at 1 h?
0.352

----------
Test: Circulating 4-AP levels by HPLC (Example 11)
Type: in vivo, mice
Details: mouse, blood, ip, 1 /g/kg, mice treated with 4-AP only; 3 days post; 1 hour after i.p. injection; individual mice; read-out: Circulating 4-AP levels, Amount
Protocol: 4-AP was injected i.p. at the indicated time points after the beginning of treatment. Mice received PTX on day 0 of the experiment, and half of those mice also were injected with 4-AP at this time, and every day thereafter, at a dosage of 1/g/kg. Blood samples were drawn 3 and 7 days after the beginning of the experiment and were taken 1 hour after the injection of 4-AP. Circulating levels of 4-AP were determined by HPLC analysis.
PARAMETER_MEASURED: concentration at 1 h

Entry under review: Nc1ccncc1 [4-AP, 4-aminopyridine] . Reported concentration at 1 h?
298 nM
